target: SERT (Homo sapiens, UniProt P31645); construct: YFP (yellow-fluorescent protein); expressed in transfected cells; assay: Superfusion release assay of [3H]5-HT; assay type: cell-based; conditions: read-out: 5-HT release EC50; superfusion, N = 5
Sequence (P31645 whole entry, the tested form may be a part): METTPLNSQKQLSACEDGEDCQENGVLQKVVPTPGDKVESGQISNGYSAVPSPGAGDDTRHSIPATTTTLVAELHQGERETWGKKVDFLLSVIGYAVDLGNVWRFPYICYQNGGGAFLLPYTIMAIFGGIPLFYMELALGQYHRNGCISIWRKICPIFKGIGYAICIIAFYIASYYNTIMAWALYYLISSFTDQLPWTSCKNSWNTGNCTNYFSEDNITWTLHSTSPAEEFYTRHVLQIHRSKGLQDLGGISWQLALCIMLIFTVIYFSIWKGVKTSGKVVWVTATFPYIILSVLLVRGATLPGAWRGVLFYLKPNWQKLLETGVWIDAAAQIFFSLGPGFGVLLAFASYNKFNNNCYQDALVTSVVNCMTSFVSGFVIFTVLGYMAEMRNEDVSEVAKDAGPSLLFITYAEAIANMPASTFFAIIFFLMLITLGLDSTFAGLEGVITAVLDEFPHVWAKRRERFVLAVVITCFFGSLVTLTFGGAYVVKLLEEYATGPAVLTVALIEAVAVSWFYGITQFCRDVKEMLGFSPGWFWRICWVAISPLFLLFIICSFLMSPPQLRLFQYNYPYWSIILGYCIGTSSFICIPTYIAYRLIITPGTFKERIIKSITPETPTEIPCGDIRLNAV
readout: EC50 (µM)
Note: unit µM is implicit; provide only the numeric part.

Value lookup for EC50; key = COc1ccc2[nH]cc(CCN3CCCC3)c2c1 5.7

----------
biological target: SERT (Homo sapiens, UniProt P31645); construct: YFP (yellow-fluorescent protein); expressed in transfected cells; assay: [3H]5-HT uptake inhibition in HEK293 cells expressing hSERT; assay type: cell-based; conditions: read-out: 5-HT uptake inhibition IC50 ± SD; HEK293 hSERT, N ≥ 3
readout: pIC50
Note: pIC50 values are expressed as the negative base-10 logarithm of concentration in M.

Solved entries (count: 7):
> print(dat)
                                   compound  reported
1  CCN(CC)CCc1c[nH]c2ccc(OC)cc12 [5-MeO-DET]      4.22
2  COc1ccc2[nH]cc(CCNC(C)C)c2c1 [5-MeO-NIPT]      4.49
3  CCN(C)CCc1c[nH]c2ccc(OC)cc12 [5-MeO-MET]      4.52
4  C=CCN(CC=C)CCc1c[nH]c2ccc(OC)cc12 [5-MeO-DALT]      4.65
5  COc1ccc2[nH]cc(CCN3CCCC3)c2c1 [5-MeO-pyr-T]      5.56
6  COc1ccc2[nH]cc(CCN(C)C(C)C)c2c1 [5-MeO-MIPT]      4.53
7  C=CCN(C)CCc1c[nH]c2ccc(OC)cc12 [5-MeO-MALT]      4.36

Value lookup for pIC50; key = CCN(CCc1c[nH]c2ccc(OC)cc12)C(C)C [5-MeO-EIPT] 4.65
